# Tested on: Escherichia coli TOP10
# test-method-notes: shrunken log2 fold change of peptide-encoding DNA abundance (4.5 h post-induction vs induction); higher = less antimicrobial activity (less host growth inhibition)
# condition-label: time post-induction: 4.5 h; library: site-saturation at positions 5, 18, 19, 20
measurement-label: shrunken log2 fold change
Could you respond with only the numeric value?

Problem: Fill in: shrunken log2 fold change of `RRIRSRPPRLPRPRPRPDQGPRP` is ___
Result: -0.196

Problem: Again, but for `RRIRGRPPRLPRPRPRPNSSPRP`
Result: -0.00499

Problem: Again, but for `RRIRYRPPRLPRPRPRPPKWPRP`
Result: 0.223

Problem: Again, but for `RRIRCRPPRLPRPRPRPSMRPRP`
Result: 0.303

Problem: Again, but for `RRIRDRPPRLPRPRPRPFTAPRP`
Result: -0.128

Problem: Again, but for `RRIRKRPPRLPRPRPRPGGIPRP`
Result: 0.569

Problem: Again, but for `RRIRKRPPRLPRPRPRPTEKPRP`
Result: 0.247

Problem: Again, but for `RRIRPRPPRLPRPRPRPNFFPRP`
Result: 0.323

Problem: Again, but for `RRIRPRPPRLPRPRPRPACAPRP`
Result: 0.593

Problem: Again, but for `RRIRARPPRLPRPRPRPDHHPRP`
Result: -0.201

Problem: Again, but for `RRIRSRPPRLPRPRPRPYTGPRP`
Result: -0.125

Problem: Again, but for `RRIRFRPPRLPRPRPRPPITPRP`
Result: -0.389

Problem: Again, but for `RRIRARPPRLPRPRPRPIRPPRP`
Result: 0.237

Problem: Again, but for `RRIRMRPPRLPRPRPRPRFDPRP`
Result: 0.364

Problem: Again, but for `RRIRWRPPRLPRPRPRPRRSPRP`
Result: 0.492

----------
# Test system: Escherichia coli TOP10
# test-method-notes: shrunken log2 fold change of peptide-encoding DNA abundance (4.5 h post-induction vs induction); higher = less antimicrobial activity (less host growth inhibition)
# condition-label: time post-induction: 4.5 h; library: site-saturation at positions 5, 18, 19, 20
Kindly state shrunken log2 fold change for each of the entries shown.

Problem: Form field - read-out: shrunken log2 fold change; system: Escherichia coli TOP10; submitted item: `RRIRDRPPRLPRPRPRPVFIPRP`;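 further: peptides expressed intracellularly from a pBAD plasmid library in pooled LB shake-flask culture, induced with 0.3% L-arabinose, DNA abundance read by NGS, three biological replicates, DESeq2 with apeglm shrinkage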
Result: -0.476

Problem: Again, but for `RRIRYRPPRLPRPRPRPTCLPRP`
Result: -0.821

Problem: Again, but for `RRIRFRPPRLPRPRPRPPLSPRP`
Result: 0.133

Problem: Again, but for `RRIRKRPPRLPRPRPRPSHYPRP`
Result: -0.248

Problem: Again, but for `RRIRLRPPRLPRPRPRPPCSPRP`
Result: -0.0182

Problem: Again, but for `RRIRPRPPRLPRPRPRPCQPPRP`
Result: -0.0774

Problem: Again, but for `RRIRWRPPRLPRPRPRPIRTPRP`
Result: -0.228

Problem: Again, but for `RRIRSRPPRLPRPRPRPVGFPRP`
Result: 0.334

Problem: Again, but for `RRIRPRPPRLPRPRPRPKWGPRP`
Result: 0.0577

Problem: Again, but for `RRIRCRPPRLPRPRPRPWAVPRP`
Result: 0.0183

Problem: Again, but for `RRIRWRPPRLPRPRPRPKIAPRP`
Result: 0.41

Problem: Again, but for `RRIRWRPPRLPRPRPRPQSMPRP`
Result: 0.0679

Problem: Again, but for `RRIRPRPPRLPRPRPRPKLSPRP`
Result: 0.331

Problem: Again, but for `RRIRRRPPRLPRPRPRPFFTPRP`
Result: 0.501

Problem: Again, but for `RRIRRRPPRLPRPRPRPPHVPRP`
Result: 0.915

Problem: Again, but for `RRIRVRPPRLPRPRPRPQFWPRP`
Result: -0.178

Problem: Again, but for `RRIRPRPPRLPRPRPRPFALPRP`
Result: 0.238

Problem: Again, but for `RRIRSRPPRLPRPRPRPIVTPRP`
Result: -0.192

Problem: Again, but for `RRIRTRPPRLPRPRPRPQKHPRP`
Result: -0.459

Problem: Again, but for `RRIRIRPPRLPRPRPRPKPEPRP`
Result: 0.0874

Problem: Again, but for `RRIRARPPRLPRPRPRPVLYPRP`
Result: 0.0232

Problem: Again, but for `RRIRFRPPRLPRPRPRPSQCPRP`
Result: 0.153

Problem: Again, but for `RRIRERPPRLPRPRPRPSCCPRP`
Result: 0.294

Problem: Again, but for `RRIRVRPPRLPRPRPRPANKPRP`
Result: -0.36

Problem: Again, but for `RRIRGRPPRLPRPRPRPCQTPRP`
Result: 0.0774

Problem: Again, but for `RRIRERPPRLPRPRPRPDCNPRP`
Result: -0.395

Problem: Again, but for `RRIRGRPPRLPRPRPRPNCTPRP`
Result: 0.172

Problem: Again, but for `RRIRCRPPRLPRPRPRPNLIPRP`
Result: -0.872

Problem: Again, but for `RRIRVRPPRLPRPRPRPLSIPRP`
Result: -0.233

Problem: Again, but for `RRIRCRPPRLPRPRPRPFPLPRP`
Result: -0.0156

Problem: Again, but for `RRIRDRPPRLPRPRPRPQKNPRP`
Result: -0.431

Problem: Again, but for `RRIRVRPPRLPRPRPRPRGPPRP`
Result: 0.946

Problem: Again, but for `RRIRGRPPRLPRPRPRPYACPRP`
Result: -0.00589

Problem: Again, but for `RRIRYRPPRLPRPRPRPIWGPRP`
Result: -0.0267

Problem: Again, but for `RRIRRRPPRLPRPRPRPHDTPRP`
Result: -0.0817

Problem: Again, but for `RRIRWRPPRLPRPRPRPVDNPRP`
Result: -0.018

Problem: Again, but for `RRIRWRPPRLPRPRPRPMKAPRP`
Result: 0.294

Problem: Again, but for `RRIRWRPPRLPRPRPRPWNHPRP`
Result: -0.0518

Problem: Again, but for `RRIRYRPPRLPRPRPRPNGKPRP`
Result: -0.186

Problem: Again, but for `RRIRDRPPRLPRPRPRPEKLPRP`
Result: 0.19

Problem: Again, but for `RRIRWRPPRLPRPRPRPWWHPRP`
Result: 0.357

Problem: Again, but for `RRIRCRPPRLPRPRPRPLMPPRP`
Result: -0.151

Problem: Again, but for `RRIRFRPPRLPRPRPRPNSRPRP`
Result: -0.0396

Problem: Again, but for `RRIRPRPPRLPRPRPRPIVQPRP`
Result: -0.135

Problem: Again, but for `RRIRMRPPRLPRPRPRPGPYPRP`
Result: -0.149

Problem: Again, but for `RRIRFRPPRLPRPRPRPKACPRP`
Result: -0.174

Problem: Again, but for `RRIRPRPPRLPRPRPRPYWGPRP`
Result: -0.201

Problem: Again, but for `RRIRSRPPRLPRPRPRPANLPRP`
Result: -0.0937

Problem: Again, but for `RRIRNRPPRLPRPRPRPIVWPRP`
Result: 0.0313

Problem: Again, but for `RRIRDRPPRLPRPRPRPRDNPRP`
Result: -0.339

Problem: Again, but for `RRIRLRPPRLPRPRPRPWVNPRP`
Result: -0.271

Problem: Again, but for `RRIRTRPPRLPRPRPRPYQTPRP`
Result: -0.128

Problem: Again, but for `RRIRCRPPRLPRPRPRPWTWPRP`
Result: 0.00573

Problem: Again, but for `RRIRKRPPRLPRPRPRPYYQPRP`
Result: -0.194

Problem: Again, but for `RRIRFRPPRLPRPRPRPEPCPRP`
Result: -0.111

Problem: Again, but for `RRIRCRPPRLPRPRPRPGGIPRP`
Result: -0.329

Problem: Again, but for `RRIRMRPPRLPRPRPRPFYLPRP`
Result: -0.191

Problem: Again, but for `RRIRPRPPRLPRPRPRPWMYPRP`
Result: -0.691

Problem: Again, but for `RRIRSRPPRLPRPRPRPESVPRP`
Result: 0.17

Problem: Again, but for `RRIRHRPPRLPRPRPRPKRKPRP`
Result: 0.0863

Problem: Again, but for `RRIRWRPPRLPRPRPRPFFPPRP`
Result: -0.0359

Problem: Again, but for `RRIRWRPPRLPRPRPRPQHGPRP`
Result: -0.164

Problem: Again, but for `RRIRARPPRLPRPRPRPKQLPRP`
Result: 0.155

Taken from the supplement of paper PMC9112550.
